- Test system: rats
- assay: Pharmacological characteristics at equivalent doses (2×ED50) in rats
- conditionSummary: 2×ED50, tail vein
# Sedation duration (mg/kg) listing for each entry below

{"inputSmiles": "C=CC#CC(C)(C)OC(=O)c1c(F)ncn1[C@H](C)c1ccccc1", "Sedation duration (mg/kg)": 7.71}
{"inputSmiles": "C[C@H](c1ccccc1)n1cnc(F)c1C(=O)OC1CCC1", "Sedation duration (mg/kg)": 9.29}
{"inputSmiles": "C[C@H](c1ccccc1)n1cnc(F)c1C(=O)OC1(C)COC1", "Sedation duration (mg/kg)": 4.96}
{"inputSmiles": "C=CC(C)(C)OC(=O)c1c(F)ncn1[C@H](C)c1ccccc1", "Sedation duration (mg/kg)": 8.70}
{"inputSmiles": "CCOC(=O)c1c(Cl)ncn1[C@H](C)c1ccccc1", "Sedation duration (mg/kg)": 5.82}
{"inputSmiles": "C=C=CC1(OC(=O)c2c(F)ncn2[C@H](C)c2ccccc2)COC1", "Sedation duration (mg/kg)": 3.66}
{"inputSmiles": "C[C@H](c1ccccc1)n1cnc(F)c1C(=O)OCC1CC1", "Sedation duration (mg/kg)": 7.12}
{"inputSmiles": "C#CC1(OC(=O)c2c(F)ncn2[C@H](C)c2ccccc2)COC1", "Sedation duration (mg/kg)": 10.65}
{"inputSmiles": "C[C@H](c1ccccc1)n1cnc(F)c1C(=O)OC1(C)CCC1", "Sedation duration (mg/kg)": 10.23}
{"inputSmiles": "CCC(CC)OC(=O)c1c(F)ncn1[C@H](C)c1ccccc1", "Sedation duration (mg/kg)": 5.51}
{"inputSmiles": "C[C@H](c1ccccc1)n1cnc(F)c1C(=O)OCC(C)(C)C", "Sedation duration (mg/kg)": 6.37}
